Each item that follows carries a reported ILS at 10.13 mg/kg.
# System: L1210
# methodNotes: Percent increase in life span relative to untreated controls in murine L1210 leukemia infected B6D2F1J male mice at 10.13 mg/kg optimal dose
# Format: functional
# conditionDescription: Mus musculus
# number then unit; no other words

Answered cases to consult:
>>> experimentalresult("CCCCCSCC(=O)[C@]1(O)Cc2c(O)c3c(c(O)c2[C@@H](OC2CC(N)C(O)C(C)O2)C1)C(=O)c1c(OC)cccc1C3=O (some centres undefined)")
"33%"
>>> experimentalresult("CCCCSCC(=O)[C@]1(O)Cc2c(O)c3c(c(O)c2[C@@H](OC2CC(N)C(O)C(C)O2)C1)C(=O)c1c(OC)cccc1C3=O (some centres undefined)")
"33%"
>>> experimentalresult("CCCCCCCCCCCCSCC(=O)[C@]1(O)Cc2c(O)c3c(c(O)c2[C@@H](OC2CC(N)C(O)C(C)O2)C1)C(=O)c1c(OC)cccc1C3=O (some centres undefined)")
"11%"

Turning to the following compound.
For the compound shown here, COc1cccc2c1C(=O)c1c(O)c3c(c(O)c1C2=O)C[C@@](O)(C(=O)CSc1ccccc1)C[C@@H]3OC1CC(N)C(O)C(C)O1 (some centres undefined) , give the reported ILS at 10.13 mg/kg. 22%
